system: human TGFßRII (antigen of the Octet experiments) (human, UniProt P37173 23-166)
Sequence (P37173 23-166): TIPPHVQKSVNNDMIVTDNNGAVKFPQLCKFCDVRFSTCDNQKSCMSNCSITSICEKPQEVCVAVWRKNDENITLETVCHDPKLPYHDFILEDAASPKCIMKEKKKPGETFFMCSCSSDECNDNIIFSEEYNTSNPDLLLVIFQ

[
  {
    "binder": "XENP36182 H1.199 L1 (antibody, V domains shown) VH: QLQVQESGPGLVKPSETLSLTCTVSGGSISQSYFSWGWIRQPPGKGLEWIGSFYYGGKTYYNPSLKSRATISIDTSKNQFSLKLSSVTAADTAVYYCARGPTVIRGVIDSWGQGTLVTVSS VL: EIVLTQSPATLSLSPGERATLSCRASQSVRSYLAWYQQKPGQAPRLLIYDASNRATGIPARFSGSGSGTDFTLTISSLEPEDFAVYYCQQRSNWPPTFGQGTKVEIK",
    "Kd, nM": 7.43
  },
  {
    "binder": "XENP35104 H1.29 L1 (antibody, V domains shown) VH: QLQVQESGPGLVKPSETLSLTCTVSGGSISNSYFTWGWIRQPPGKGLEWIGSFYYGEKTYYNPSLKSRATISIDTSKSQFSLKLSSVTAADTAVYYCPRGPTMIRGVIDSWGQGTLVTVSS VL: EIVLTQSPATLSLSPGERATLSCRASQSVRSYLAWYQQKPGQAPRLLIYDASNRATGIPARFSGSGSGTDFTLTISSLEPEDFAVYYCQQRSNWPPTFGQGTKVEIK",
    "Kd, nM": 2.43
  },
  {
    "binder": "XENP35107 H1.36 L1 (antibody, V domains shown) VH: QLQVQESGPGLVKPSETLSLTCTVSGGSISNSYFSWSWIRQPPGKGLEWIGSFYYGEKTYYNPSLKSRATISIDTSKSQFSLKLSSVTAADTAVYYCPRGPTMIRGVIDSWGQGTLVTVSS VL: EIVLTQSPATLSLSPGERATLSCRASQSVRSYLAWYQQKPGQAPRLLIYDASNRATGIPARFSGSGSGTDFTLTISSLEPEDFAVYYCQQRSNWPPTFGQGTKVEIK",
    "Kd, nM": 2.89
  }
]
